tested on: Lucilia cuprina larvae; assay: Lucilia cuprina test (LUCICU); format: in vivo; details: 1152 h, 100 ppm, after 48 days, read-out: activity (kill in %)
Kindly supply the reported pest or weed control at 100 ppm values for the records listed here.
Please state the figure in %; there is no need to write the unit.

Prompt: Identify the reported pest or weed control at 100 ppm for the following entry. Cc1cc(C#N)cc(C(=O)NC2CCS(=O)(=O)C2)c1NC(=O)c1cc(Cn2nnc(C(F)(F)C(F)(F)F)n2)nn1-c1ncccc1Cl (stereo not drawn)
Response: 100

Prompt: Identify the reported pest or weed control at 100 ppm for the following entry. Cc1cc(C#N)cc(C(=O)NC2CCS(=O)(=O)C2)c1NC(=O)c1cc(Cn2nnc(C(F)(F)F)n2)nn1-c1ccccc1Cl (stereo not drawn)
Response: 100

Prompt: Identify the reported pest or weed control at 100 ppm for the following entry. "Cc1cc(C#N)cc(C(=O)NC2COC2)c1NC(=O)c1cc(Cn2nnc(C(F)(F)F)n2)nn1-c1c(F)cccc1F"
Response: 100

---

assay: log P by HPLC on reversed-phase columns (EEC Directive 79/831 Annex V.A8); assay type: physicochemical; conditions: pH 2.7, log P
Kindly supply the reported chromatographic logP values for the records listed here.
No unit in the answer, please; the number alone is enough.

Prompt: Identify the reported chromatographic logP for the following entry. "Cc1c(F)ccc(C(=O)NCc2ccccc2Cl)c1NC(=O)c1cc(Cn2nnc(C(F)(F)F)n2)nn1-c1ncccc1Cl"
Response: 3.79

Prompt: Identify the reported chromatographic logP for the following entry. "Cc1cc(Cl)cc(C(=O)NCc2ccc(Cl)c(Cl)c2)c1NC(=O)c1cc(Cn2nnc(C(F)(F)F)n2)nn1-c1ncccc1Cl"
Response: 4.37

Prompt: Identify the reported chromatographic logP for the following entry. "O=C(NC1COC1)c1cc(Cl)cc(Cl)c1NC(=O)c1cc(Cn2nnc(C(F)(F)F)n2)nn1-c1ncccc1Cl"
Response: 2.79

Prompt: Identify the reported chromatographic logP for the following entry. "COc1ccccc1CNC(=O)c1cc(Cl)cc(C)c1NC(=O)c1cc(Cn2nnc(C(F)(F)F)n2)nn1-c1ncccc1Cl"
Response: 3.94

Prompt: Identify the reported chromatographic logP for the following entry. "Cc1cc(F)cc(C(=O)NC2COC2)c1NC(=O)c1cc(Cn2nnc(C(F)(F)F)n2)nn1-c1ncccc1Cl"
Response: 2.53

Prompt: Identify the reported chromatographic logP for the following entry. Cc1cc(Cl)cc(C(=O)NC(C)c2ccccc2F)c1NC(=O)c1cc(Cn2nnc(C(F)(F)F)n2)nn1-c1ncccc1Cl (centres unmarked)
Response: 3.98

Prompt: Identify the reported chromatographic logP for the following entry. Cc1cc(C#N)cc(C(=O)NC2CCSC2=O)c1NC(=O)c1cc(Cn2nnc(C(F)(F)F)n2)nn1-c1ncccc1Cl (centres unmarked)
Response: 2.89

Prompt: Identify the reported chromatographic logP for the following entry. "Cc1cc(C#N)cc(C(=O)NC2CSC2)c1NC(=O)c1cc(Cn2nnc(C(F)(F)C(F)(F)F)n2)nn1-c1ncccc1Cl"
Response: 3.43

Prompt: Identify the reported chromatographic logP for the following entry. "Cc1cccc(CNC(=O)c2cc(Cl)cc(C)c2NC(=O)c2cc(Cn3nnc(C(F)(F)F)n3)nn2-c2ncccc2Cl)n1"
Response: 2.24

Prompt: Identify the reported chromatographic logP for the following entry. Cc1cc(Cl)cc(C(=O)NC(C)c2cccc(F)c2)c1NC(=O)c1cc(Cn2nnc(C(F)(F)F)n2)nn1-c1ncccc1Cl (centres unmarked)
Response: 4

Prompt: Identify the reported chromatographic logP for the following entry. "Cc1cc(Cl)cc(C(=O)NC2CCN(C)CC2)c1NC(=O)c1cc(Cn2nnc(C(F)(F)F)n2)nn1-c1ncccc1Cl"
Response: 4.14

Prompt: Identify the reported chromatographic logP for the following entry. Cc1ccc(C(C)NC(=O)c2cc(Cl)cc(C)c2NC(=O)c2cc(Cn3nnc(C(F)(F)F)n3)nn2-c2ncccc2Cl)cc1 (centres unmarked)
Response: 4.24

Prompt: Identify the reported chromatographic logP for the following entry. "Cc1cc(Cl)cc(C(=O)NCc2ccccc2F)c1NC(=O)c1cc(Cn2nnc(C(F)(F)F)n2)nn1-c1ncccc1Cl"
Response: 3.77

Prompt: Identify the reported chromatographic logP for the following entry. "Cc1cc(I)cc(C(=O)NCc2ccccc2)c1NC(=O)c1cc(Cn2nnc(CCC(F)(F)F)n2)nn1-c1ncccc1Cl"
Response: 3.78

---

Kindly supply the reported pest or weed control at 100 g/ha values for the records listed here.
tested on: larvae of the mustard beetle (Phaedon cochleariae); assay: Phaedon test (PHAECO spray treatment); settings: Phaedon cochleariae, 168 h, read-out: activity in % (beetle larvae killed)

Prompt: Identify the reported pest or weed control at 100 g/ha for the following entry. CCc1cccc(CNC(=O)c2cc(Cl)cc(C)c2NC(=O)c2cc(Cn3nnc(C(F)(F)F)n3)nn2-c2ncccc2Cl)n1 [Example 228]
Response: 100%

Prompt: Identify the reported pest or weed control at 100 g/ha for the following entry. Cc1ccc(Cl)c(C(=O)NCc2ccccc2Cl)c1NC(=O)c1cc(Cn2nnc(C(F)(F)F)n2)nn1-c1ncccc1Cl [Example 196]
Response: 100%

Prompt: Identify the reported pest or weed control at 100 g/ha for the following entry. Cc1cc(C#N)cc(C(=O)NC2CCS(=O)(=O)C2)c1NC(=O)c1cc(Cn2nnc(C(F)(F)F)n2)nn1-c1c(F)cccc1F (stereo not drawn) [Example 52]
Response: 100%

---

assay: log P by HPLC on reversed-phase columns (EEC Directive 79/831 Annex V.A8); format: physicochemical; details: reversed-phase C18 HPLC column, pH 2.7, HPLC reversed-phase C18, acidic range pH 2.7 (HCOOH); only or first value of the cell; read-out: log P
endpoint.label: chromatographic logP
No unit in the answer, please; the number alone is enough.

Prompt: Identify the reported chromatographic logP for the following entry. Cc1cc(C#N)cc(C(=O)NC2CCN(Cc3ccccc3)C2)c1NC(=O)c1cc(Cn2nnc(C(F)(F)F)n2)nn1-c1ncccc1Cl (stereo not drawn)
Response: 1.9

Prompt: Identify the reported chromatographic logP for the following entry. "Cc1cc(C#N)cc(C(=O)NCc2ccc(OC(F)(F)F)cc2)c1NC(=O)c1cc(Cn2nnc(C(F)(F)F)n2)nn1-c1ncccc1Cl"
Response: 3.9

Prompt: Identify the reported chromatographic logP for the following entry. "Cc1cc(Cl)cc(C(=O)NCc2ccccc2OC(F)(F)F)c1NC(=O)c1cc(Cn2nnc(C(F)(F)F)n2)nn1-c1ncccc1Cl"
Response: 4.34

Prompt: Identify the reported chromatographic logP for the following entry. "Cc1cc(C#N)cc(C(=O)NCc2ccc(OC(F)(F)F)cc2)c1NC(=O)c1cc(Cn2nnc(C(F)(F)F)n2)nn1-c1ccccc1Cl"
Response: 3.98

Prompt: Identify the reported chromatographic logP for the following entry. "Cc1cc(I)cc(C(=O)NCc2ccc(OC(F)(F)F)cc2)c1NC(=O)c1cc(Cn2nnc(C(F)(F)C(F)(F)F)n2)nn1-c1ncccc1Cl"
Response: 4.85

Prompt: Identify the reported chromatographic logP for the following entry. Cc1cc(Cl)cc(C(=O)NC(C)c2ccc(Cl)cc2Cl)c1NC(=O)c1cc(Cn2nnc(C(F)(F)F)n2)nn1-c1ncccc1Cl (stereo not drawn)
Response: 4.67

---

assay: log P by HPLC on reversed-phase columns (EEC Directive 79/831 Annex V.A8); format: physicochemical; conditions: reversed-phase C18 HPLC column, pH 2.7, HPLC reversed-phase C18, acidic range pH 2.7 (HCOOH); only or first value of the cell; read-out: log P
Kindly supply the reported chromatographic logP values for the records listed here.
No unit in the answer, please; the number alone is enough.

Prompt: Identify the reported chromatographic logP for the following entry. "Cc1cc(C#N)cc(C(=O)NCc2cccc(OC(F)F)c2)c1NC(=O)c1cc(Cn2nnc(C(F)F)n2)nn1-c1ncccc1Cl"
Response: 3.08

Prompt: Identify the reported chromatographic logP for the following entry. "Cc1c(F)ccc(C(=O)NCc2ccccc2OC(F)(F)F)c1NC(=O)c1cc(Cn2nnc(C(F)(F)F)n2)nn1-c1ncccc1Cl"
Response: 4.04

Prompt: Identify the reported chromatographic logP for the following entry. "Cc1cc(Cl)cc(C(=O)NCc2ccc(OC(F)(F)F)cc2)c1NC(=O)c1cc(Cn2nnc(C(F)(F)F)n2)nn1-c1ncccc1Cl"
Response: 4.46

Prompt: Identify the reported chromatographic logP for the following entry. "Cc1cc(C#N)cc(C(=O)NCc2ccccc2OC(F)(F)F)c1NC(=O)c1cc(Cn2nnc(C(F)(F)F)n2)nn1-c1ccccc1Cl"
Response: 4.28

Prompt: Identify the reported chromatographic logP for the following entry. "Cc1c(F)ccc(C(=O)NCc2ccc(OC(F)(F)F)cc2)c1NC(=O)c1cc(Cn2nnc(C(F)(F)F)n2)nn1-c1ncccc1Cl"
Response: 4.05

Prompt: Identify the reported chromatographic logP for the following entry. "Cc1cc(C#N)cc(C(=O)NC2COC2)c1NC(=O)c1cc(Cn2nnc(C(F)(F)F)n2)nn1-c1c(F)cccc1F"
Response: 2.79
